# Test system: HCT-116 colon
# ASSAY_PROTOCOL: NCI tumour cell line growth inhibition, 48 h
*1 amine or outer side, *2 acyl side, *3 side chain or, on linkers, in order; H or OH if unused. Where a SMILES comes first, the peptide text is derived from it. Bridges are numbered along the chain shown (N, C = ends). [ ]: non-standard residue; d: D form. The star is where a group is joined. Phe(3,5-F2) = N[C@@H](Cc1cc(F)cc(F)c1)C(=O)O; Pro(4R-Me) = C[C@H]1CN[C@H](C(=O)O)C1; aThr = C[C@H](O)[C@H](N)C(=O)O; Pip = O=C(O)[C@@H]1CCCCN1; X10 = Fc1cc(C2CC2)ccc1N*; CO = O=C([*:1])[*:2]
RESULT_TYPE: TGI

Challenge: Item: O=C(CCc1nc(=S)[nH][nH]1)Nc1cc(Cl)c(Cl)cc1Cl Test system: HCT-116 colon Read-out: TGI Value: ?
Response given: > 100000 nM

Challenge: Item: O=C(Nc1ccc(-n2ccc3c(NC(=O)c4ccccc4)nccc32)cc1)c1ccc(Cl)c(C(F)(F)F)c1 Test system: HCT-116 colon Read-out: TGI Value: ?
Response given: 989 nM

Challenge: Item: CC1(C)N=[N+]([O-])C1(C)C Test system: HCT-116 colon Read-out: TGI Value: ?
Response given: > 100000 nM

Challenge: Item: Cc1ccc(N=NC(=Nc2ccccc2)c2ccc(N(CCC#N)CCC#N)cc2)cc1 Test system: HCT-116 colon Read-out: TGI Value: ?
Response given: > 100000 nM

Challenge: Item: C[C@@H]1C[C@H]2C(=O)O[C@@H](C)[C@H](NC(=O)[C@H](Cc3cc(F)cc(F)c3)NC(=O)Nc3ccc(C4CC4)cc3F)C(=O)N3CCC[C@H]3C(=O)N3CCCC[C@H]3C(=O)N[C@@H](C)C(=O)N2C1 ({X10-CO}-[Phe(3,5-F2)][aThr]P[Pip]A[Pro(4R-Me)]; ester 2-C) Test system: HCT-116 colon Read-out: TGI Value: ?
Response given: 2160 nM

----------
# System: HCT-116 colon
# ASSAY_PROTOCOL: NCI tumour cell line growth inhibition, 48 h; in the data active = GI50 below about 0.43 µM; inactive = the rest
Form entry, call: pick from active, inactive

Challenge: Can you look up the reported call for Nc1c(C(=O)c2cccc(CCS(N)(=O)=O)c2)cnn1-c1ccc(F)cc1 for me?
Response given: inactive

Challenge: Can you look up the reported call for Cc1ccc(NC(=O)Nc2ccc(-c3cccnc3)cc2N2CCC(CO)CC2)cc1 for me?
Response given: inactive

Challenge: Can you look up the reported call for Cc1cc(-c2nc(C(=O)Nc3cc4oc(N5CCOCC5)nc4nc3N3CC[C@@H](O)C3)co2)ccn1 for me?
Response given: inactive

Challenge: Can you look up the reported call for C=CC(=O)Nc1cc(Nc2ncc(C(=O)OC(C)C)c(-c3cn(C)c4ccccc34)n2)c(OC)cc1N(C)CCN(C)C for me?
Response given: inactive

Challenge: Can you look up the reported call for CCN1/C(=C\c2cc[n+](CC)c3ccccc23)C=Cc2ccccc21 for me?
Response given: active

Challenge: Can you look up the reported call for O=C(Nc1ccc(F)cc1)Nc1ccc(Cl)c([N+](=O)[O-])c1 for me?
Response given: inactive

Challenge: Can you look up the reported call for OCc1cc2ccccc2c2c3c(ccc12)OCO3 for me?
Response given: inactive

Challenge: Can you look up the reported call for CC1CCc2nc[nH]c(=O)c21 (stereo not drawn) for me?
Response given: inactive

Challenge: Can you look up the reported call for COc1cccc(-c2cc(-c3cccc(NS(C)(=O)=O)c3)nc(N)c2C#N)c1O for me?
Response given: active

Challenge: Can you look up the reported call for COc1cc2c(cc1OCCCCN1CCN(CC(=O)Nc3ccc(Cl)cc3C(=O)c3ccccc3Cl)CC1)N=CC1CCCN1C2=O (stereo not drawn) for me?
Response given: active

Challenge: Can you look up the reported call for COc1ccc2c(c1)sc1nc(-c3ccccc3)c(-c3cccc4ccccc34)n12 for me?
Response given: inactive

Challenge: Can you look up the reported call for O=C1NC(=NCCc2cccc(F)c2)S/C1=C\c1ccc2ncccc2c1 for me?
Response given: inactive

Challenge: Can you look up the reported call for CCCCCCCCCCCCCC(=O)OC(/C=C/C(C)C)C(O)C(O)C(OC)C(=O)NC1CCCCN(C)C1=O (stereo not drawn) for me?
Response given: inactive

Challenge: Can you look up the reported call for C=CCO[C@H]1CO[C@H]2[C@@H]1OC[C@@H]2Oc1ccc(Nc2ccnc(Nc3ccc(O[C@H]4CO[C@H]5[C@@H]4OC[C@@H]5OCC=C)c(Cl)c3)n2)cc1Cl for me?
Response given: inactive

Challenge: Can you look up the reported call for NS(=O)(=O)OC[C@@H]1C[C@@H](n2ccc3c(NC4CCc5ccccc54)ncnc32)C[C@@H]1O (stereo partly drawn) for me?
Response given: active

Challenge: Can you look up the reported call for CCOC1Oc2ccccc2C(=O)/C1=C/Nc1ccc(C(C)=O)cc1 (stereo not drawn) for me?
Response given: inactive

Challenge: Can you look up the reported call for CC(=O)[CH-]C(=O)c1ccccc1.CC(=O)[CH-]C(=O)c1ccccc1.CN(C)c1ccc([O-])cc1.CN(C)c1ccc([O-])cc1.Cl.[Ti+4] for me?
Response given: inactive

Challenge: Can you look up the reported call for Cc1ccnc2c1ccc1c(C)ccnc12 for me?
Response given: active
